Data origin, for the record: the supplement of paper PMC10567573

B1: CDKL4 (parent)
chain: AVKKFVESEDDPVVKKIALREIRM

Variants of: B1
Test: protein stability index of a GFP-peptide fusion (GPS, HEK-293T) (PSI 1-6); higher = more stable;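 note: lentivirally expressed fusions sorted by FACS into six bins by GFP to DsRed ratio, PSI derived from sequencing read proportions per bin multiplied by bin number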
Settings: c terminus: a fixed tail appended
Could you please report measured protein stability index for the items listed next?
// no unit string in output, number only

[Q] Using the record for A18D , report its protein stability index.
[A] 3.84

[Q] Using the record for K4P , report its protein stability index.
[A] 4.01

[Q] Using the record for S8H , report its protein stability index.
[A] 3.02

[Q] Using the record for S8I , report its protein stability index.
[A] 2.54

[Q] Using the record for K16L , report its protein stability index.
[A] 2.63

[Q] Using the record for A1I , report its protein stability index.
[A] 2.16

[Q] Using the record for R23H , report its protein stability index.
[A] 3.14

[Q] Using the record for E21T , report its protein stability index.
[A] 2.4

[Q] Using the record for A18L , report its protein stability index.
[A] 2.29

[Q] Using the record for D10C , report its protein stability index.
[A] 2.15

[Q] Using the record for K3V , report its protein stability index.
[A] 1.95
